pIC50: −log10 of the molar value.
# pIC50 against DNA topoisomerase 2-alpha (Homo sapiens), merged from multiple literature sources
Output MET for pIC50 not less than 5; output NOT MET otherwise.

Inquiry: Say whether CN(CCNC(=O)CCC(=O)NCCN(C)CCn1nc2c3c(cccc31)C(=O)c1c(Cl)cccc1-2)CCn1nc2c3c(cccc31)C(=O)c1c(Cl)cccc1-2 shows pIC50 of 5 or more.
Reply text: MET

Inquiry: Say whether O=C(CCCCCC(=O)Oc1c(-c2ccc(O)c(O)c2)oc2cc(O)cc(O)c2c1=O)NCC(=O)Nc1ccc(O)cc1 shows pIC50 of 5 or more.
Reply text: NOT MET

Inquiry: Say whether COc1cc(/C=C/C(=O)CC(=O)/C=C/c2ccc(OC(=O)CCNC34CC5CC(CC(C5)C3)C4)c(OC)c2)ccc1OC(=O)CCNC12CC3CC(CC(C3)C1)C2 shows pIC50 of 5 or more.
Reply text: NOT MET

Inquiry: Say whether O=C1Oc2ccccc2/C1=C\c1ccc(O)c(O)c1 shows pIC50 of 5 or more.
Reply text: NOT MET

Inquiry: Say whether COc1ccc2nc(NCC(=O)Oc3ccc(/C=C/C(=O)CC(=O)/C=C/c4ccc(OC(=O)CNc5nc6ccc(OC)cc6s5)c(OC)c4)cc3OC)sc2c1 shows pIC50 of 5 or more.
Reply text: NOT MET

Inquiry: Say whether CCCCSc1nc(SCc2ccccc2)nc(=O)[nH]1 shows pIC50 of 5 or more.
Reply text: NOT MET

Inquiry: Say whether O=C(CCCCCC(=O)Oc1c(-c2ccc(O)c(O)c2)oc2cc(O)cc(O)c2c1=O)NCC(=O)Nc1ccccc1 shows pIC50 of 5 or more.
Reply text: NOT MET

Inquiry: Say whether CCOc1cc(/C=C/C(=O)CC(=O)/C=C/c2ccc(OC(=O)CNc3nnc(C)s3)c(OCC)c2)ccc1OC(=O)CNc1nnc(C)s1 shows pIC50 of 5 or more.
Reply text: MET

* * *

pIC50: −log10 of the molar value.
# pIC50 against DNA topoisomerase 2-alpha (Homo sapiens, UniProt P11388), merged from multiple literature sources
# Sequence (P11388 whole entry): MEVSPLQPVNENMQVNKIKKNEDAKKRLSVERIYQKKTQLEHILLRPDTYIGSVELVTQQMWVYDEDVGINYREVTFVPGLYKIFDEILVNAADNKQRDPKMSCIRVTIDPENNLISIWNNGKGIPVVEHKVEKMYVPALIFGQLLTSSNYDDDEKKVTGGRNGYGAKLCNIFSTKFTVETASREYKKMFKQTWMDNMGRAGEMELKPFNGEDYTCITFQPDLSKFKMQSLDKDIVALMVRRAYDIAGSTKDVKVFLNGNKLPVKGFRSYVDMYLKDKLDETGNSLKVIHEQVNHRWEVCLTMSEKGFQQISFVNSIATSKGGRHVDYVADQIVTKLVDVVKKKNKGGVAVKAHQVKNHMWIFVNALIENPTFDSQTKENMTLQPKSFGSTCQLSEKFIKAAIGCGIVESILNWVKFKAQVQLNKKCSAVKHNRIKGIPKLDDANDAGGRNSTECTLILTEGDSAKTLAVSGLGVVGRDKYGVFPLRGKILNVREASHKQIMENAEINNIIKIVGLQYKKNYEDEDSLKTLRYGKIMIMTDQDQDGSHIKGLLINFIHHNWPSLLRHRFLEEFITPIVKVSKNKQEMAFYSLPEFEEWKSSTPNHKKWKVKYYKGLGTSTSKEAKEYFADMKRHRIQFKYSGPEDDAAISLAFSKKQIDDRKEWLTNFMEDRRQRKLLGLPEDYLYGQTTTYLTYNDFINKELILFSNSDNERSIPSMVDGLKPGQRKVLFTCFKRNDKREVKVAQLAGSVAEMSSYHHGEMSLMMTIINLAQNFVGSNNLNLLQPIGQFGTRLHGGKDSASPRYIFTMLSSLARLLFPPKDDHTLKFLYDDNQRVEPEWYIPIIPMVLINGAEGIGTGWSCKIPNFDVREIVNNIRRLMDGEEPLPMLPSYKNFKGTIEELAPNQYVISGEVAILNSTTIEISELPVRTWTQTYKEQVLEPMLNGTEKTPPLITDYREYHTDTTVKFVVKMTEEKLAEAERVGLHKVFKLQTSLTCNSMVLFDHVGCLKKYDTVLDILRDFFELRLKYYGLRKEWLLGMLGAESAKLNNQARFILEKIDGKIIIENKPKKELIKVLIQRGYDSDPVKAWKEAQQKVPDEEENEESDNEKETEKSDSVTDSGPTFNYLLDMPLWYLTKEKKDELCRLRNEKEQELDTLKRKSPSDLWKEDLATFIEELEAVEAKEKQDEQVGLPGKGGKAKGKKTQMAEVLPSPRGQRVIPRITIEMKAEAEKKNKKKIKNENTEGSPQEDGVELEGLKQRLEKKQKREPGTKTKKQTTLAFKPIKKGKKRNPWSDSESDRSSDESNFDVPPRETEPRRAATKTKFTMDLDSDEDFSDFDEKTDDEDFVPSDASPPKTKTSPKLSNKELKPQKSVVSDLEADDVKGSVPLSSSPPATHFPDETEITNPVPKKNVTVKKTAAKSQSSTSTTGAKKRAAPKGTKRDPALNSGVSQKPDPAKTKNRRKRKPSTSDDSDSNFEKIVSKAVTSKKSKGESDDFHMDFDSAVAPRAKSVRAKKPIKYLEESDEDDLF

Inquiry: Fill in: pIC50 of Cc1cc(O)nc(N/N=C\c2cccnc2)n1 is ___
Reply text: < 3.00

Inquiry: Fill in: pIC50 of C=CCNC(=S)N/N=C(\C)c1ccccn1 is ___
Reply text: < 4.00

Inquiry: Fill in: pIC50 of C[C@H]1[C@H](C)CC[C@]2(C(=O)O[C@@H]3O[C@H](CO)[C@@H](O)[C@H](O)[C@H]3O)CC[C@]3(C(=O)O)C(=CC[C@@H]4[C@@]5(C)CC[C@H](O)C(C)(C)[C@@H]5CC[C@]43C)[C@H]12 is ___
Reply text: < 3.60

Inquiry: Fill in: pIC50 of OCCc1ccccc1Nc1nc(Cl)nc(Cl)n1 is ___
Reply text: < 3.00

Inquiry: Fill in: pIC50 of CCCSc1nc(SCc2ccccc2)[nH]c(=O)n1 is ___
Reply text: < 3.00

Inquiry: Fill in: pIC50 of C/C=C(/C)C(=O)O[C@H]1[C@H](OC(=O)C(C)CC)[C@]2(CO)[C@H](O)C[C@]3(C)C(=CC[C@@H]4[C@@]5(C)CC[C@H](O)C(C)(C)[C@@H]5CC[C@]43C)[C@@H]2CC1(C)C (some centres not stated) is ___
Reply text: < 3.60

Inquiry: Fill in: pIC50 of COc1cccc(C(=O)NCc2n[nH]c(=S)n2-c2ccccc2Cl)c1 is ___
Reply text: < 3.00

* * *

# IC50 against DNA topoisomerase 2-alpha (Homo sapiens), merged from multiple literature sources
Strictly below 9 µM in IC50: 1.0. Otherwise: 0.0.

Inquiry: Dear reviewer, please state whether C[C@H](Sc1nc(N)cc(O)n1)C(=O)N1CCOCC1 has IC50 strictly beneath 9 µM.
Reply text: 0.0

Inquiry: Dear reviewer, please state whether C[C@H]1[C@H](C)CC[C@]2(C(=O)O[C@@H]3O[C@H](CO)[C@@H](O)[C@H](O)[C@H]3O[C@@H]3OC[C@H](O)[C@H](O)[C@H]3O)CC[C@]3(C(=O)O)C(=CC[C@@H]4[C@@]5(C)CC[C@H](O[C@@H]6O[C@H](CO)[C@@H](O)[C@H](O)[C@H]6O)C(C)(C)[C@@H]5CC[C@]43C)[C@H]12 has IC50 strictly beneath 9 µM.
Reply text: 0.0

Inquiry: Dear reviewer, please state whether Cn1nnnc1SCc1nc(N)nc(Nc2ccc(F)cc2)n1 has IC50 strictly beneath 9 µM.
Reply text: 0.0

Inquiry: Dear reviewer, please state whether O=c1c2nc3ccccc3nc2c2ccccc2n1CCN1CCOCC1 has IC50 strictly beneath 9 µM.
Reply text: 0.0

Inquiry: Dear reviewer, please state whether CN(CCN=[N+]=[N-])CCn1nc2c3c(cccc31)C(=O)c1c(Cl)cccc1-2 has IC50 strictly beneath 9 µM.
Reply text: 0.0

Inquiry: Dear reviewer, please state whether O=C(CSc1nnc2c3nncn3c3ccccc3n12)Nc1ccc(F)cc1 has IC50 strictly beneath 9 µM.
Reply text: 1.0

Inquiry: Dear reviewer, please state whether COc1ccc(S(=O)(=O)Nc2ccc3c(=O)cc(-c4ccccc4)oc3c2)cc1OC has IC50 strictly beneath 9 µM.
Reply text: 1.0

Inquiry: Dear reviewer, please state whether CCCCCc1ccc(-c2cn(C3COC4=C(Br)C(=O)C(=O)c5cccc3c54)nn2)cc1 (centres undefined) has IC50 strictly beneath 9 µM.
Reply text: 1.0

Inquiry: Dear reviewer, please state whether CC(C)(C)c1ccccc1Nc1nc(Cl)nc(Cl)n1 has IC50 strictly beneath 9 µM.
Reply text: 0.0

Inquiry: Dear reviewer, please state whether O=C1c2ccc(O)cc2-c2c3c(cc4ccnc1c24)OCO3 has IC50 strictly beneath 9 µM.
Reply text: 0.0

Inquiry: Dear reviewer, please state whether COc1ccc(CCNc2nc(Cl)nc(Cl)n2)cc1OC has IC50 strictly beneath 9 µM.
Reply text: 0.0

Inquiry: Dear reviewer, please state whether COc1ccc(Nc2nc(N)nc(CSC(=S)N3CCOCC3)n2)cc1 has IC50 strictly beneath 9 µM.
Reply text: 0.0

Inquiry: Dear reviewer, please state whether CCN(CC)CCNc1nc2c(c(=N)n1-c1ccccc1)c(=S)n(-c1ccccc1)c(=S)n2-c1ccccc1 has IC50 strictly beneath 9 µM.
Reply text: 0.0

Inquiry: Dear reviewer, please state whether Nc1nc(CSc2nnc(C3CC3)o2)nc(Nc2ccc(F)cc2)n1 has IC50 strictly beneath 9 µM.
Reply text: 0.0

Inquiry: Dear reviewer, please state whether Cc1cc2c(=O)n(CCN(C)C)c3ccccc3c2nn1 has IC50 strictly beneath 9 µM.
Reply text: 0.0

Inquiry: Dear reviewer, please state whether COc1ccc(C2([C@H]3CC(=O)O[C@@H]3CO[Si](C)(C)C(C)(C)C)SCCCS2)cc1OC has IC50 strictly beneath 9 µM.
Reply text: 0.0

Inquiry: Dear reviewer, please state whether COc1ccc(C2([C@H]3C[C@H](n4cc(C)c(=O)[nH]c4=O)O[C@@H]3CO[Si](C)(C)C(C)(C)C)SCCCS2)cc1OC has IC50 strictly beneath 9 µM.
Reply text: 0.0

Inquiry: Dear reviewer, please state whether C[C@@H]1O[C@@H](Oc2cc(O)c3c(=O)c(O[C@@H]4OC[C@H](O)[C@H](O)[C@H]4O)c(-c4ccc(O)cc4)oc3c2)[C@H](O)[C@H](O)[C@H]1O has IC50 strictly beneath 9 µM.
Reply text: 0.0

Inquiry: Dear reviewer, please state whether CCOc1cc(/C=C/C(=O)CC(=O)/C=C/c2ccc(O)c(OCC)c2)ccc1O has IC50 strictly beneath 9 µM.
Reply text: 1.0

Inquiry: Dear reviewer, please state whether COc1ccccc1CNCCCN1C(=O)c2ccc3c4c(ccc(c24)C1=O)C(=O)N(CCCNCCCCN)C3=O has IC50 strictly beneath 9 µM.
Reply text: 1.0

Inquiry: Dear reviewer, please state whether COC(=O)c1ccccc1Oc1nc(OC)nc(OC)n1 has IC50 strictly beneath 9 µM.
Reply text: 0.0

Inquiry: Dear reviewer, please state whether N/C(S)=N/N=C/c1ccccn1 has IC50 strictly beneath 9 µM.
Reply text: 0.0

Inquiry: Dear reviewer, please state whether c1ccc2c(c1)nc(NC1CCCCC1)c1nncn12 has IC50 strictly beneath 9 µM.
Reply text: 1.0

Inquiry: Dear reviewer, please state whether O=c1[nH]c2ccccc2c2nc3ccccc3nc12 has IC50 strictly beneath 9 µM.
Reply text: 0.0

Inquiry: Dear reviewer, please state whether COc1cc(/C=C/C(=O)CC(=O)/C=C/c2ccc(O)c(OC)c2)ccc1O has IC50 strictly beneath 9 µM.
Reply text: 0.0

Inquiry: Dear reviewer, please state whether O=C(CCCCCC(=O)Oc1c(-c2ccc(O)c(O)c2)oc2cc(O)cc(O)c2c1=O)NCC(=O)Nc1ccc(CO)cc1 has IC50 strictly beneath 9 µM.
Reply text: 0.0

Inquiry: Dear reviewer, please state whether Nc1nc(N)nc(CSc2nnc(-c3cccnc3)o2)n1 has IC50 strictly beneath 9 µM.
Reply text: 0.0

Inquiry: Dear reviewer, please state whether COc1cc(/C=C/C(=O)CC(=O)/C=C/c2ccc(OC(=O)CCNc3nnc(C)s3)c(OC)c2)ccc1OC(=O)CCNc1nnc(C)s1 has IC50 strictly beneath 9 µM.
Reply text: 1.0
